Molecular target: Human glucagon receptor (human, UniProt P47871 26-477)
Experiment: cell-based or functional assay
Where no end group is shown, it is not given here. [ ]: non-standard residue; d: D form. αMePhe(2-F) = C[C@](N)(Cc1ccccc1F)C(=O)O; Ac3c = NC1(C(=O)O)CC1; Aib = CC(C)(N)C(=O)O
Let's look at some binders and their measured cAMP production with saturated glucagon peptide; test compound '1 nM'.
Property: cAMP production with saturated glucagon peptide; test compound '1 nM'

| Binder | Measured result |
| --- | --- |
| HAQGTFTSD[Bip(OMe)][Bip(Pyr)] [Seq. ID. No. 10: HAQGTFTSD-Bip(OMe)-Bip(Pyr)] | 4 pmol/ml/µg prt |
| HXQGTXTSDXX (Aib at 2; α-Me-2F-Phe at 6; Bip(OMe) at 10; Bip(2CF3) at 11; C-terminal amide (CONH2)) [Seq. ID. No. 32: H-Aib-QGT-(α-Me-2F-Phe)-TSD-Bip(OMe)-Bip(2CF3)] | 0 pmol/ml/µg prt |
| HSQGTXTSDXX (α-Me-2F-Phe at 6; Bip(OMe) at 10; Bip(2CF3) at 11) [Seq. ID. No. 24: HSQGT-(α-Me-2F-Phe)-TSD-Bip(OMe)-Bip(2CF3)] | 0 pmol/ml/µg prt |
| HSQGTXTSDXX (α-Me-2F-Phe at 6; Bip(OMe) at 10; Bip(2Me) at 11) [Seq. ID. No. 21: HSQGT-(α-Me-2F-Phe)-TSD-Bip(OMe)-Bip(2Me)] | 14 pmol/ml/µg prt |
| HSQGTXTSDXX (α-Me-2F-Phe at 6; Bip(OMe) at 10; Bip(2F) at 11) [Seq. ID. No. 23: HSQGT-(α-Me-2F-Phe)-TSD-Bip(OMe)-Bip(2F)] | 0 pmol/ml/µg prt |
| H[Ac3c]QGTFTSD[Bip(OMe)][Bip(2F)] [Seq. ID. No. 19: H-(ACP)-QGTFTSD-Bip(OMe)-Bip(2F)] | 0 pmol/ml/µg prt |
| HAQGT[αMePhe(2-F)]TSD[Bip(OMe)][Bip(2F)] [Seq. ID. No. 27: HAQGT-(α-Me-2F-Phe)-TSD-Bip(OMe)-Bip(2F)] | 3 pmol/ml/µg prt |
| HXQGTXTSDXX (not fully specified; ACP at 2; α-Me-2F-Phe at 6; Bip(OMe) at 10; Bip(2F) at 11) [Seq. ID. No. 35: H-(ACP)-QGT-(α-Me-2F-Phe)-TSD-Bip(OMe)-Bip(2F)] | 0 pmol/ml/µg prt |
| H[Ac3c]QGTFTSD[Bip(OMe)][Bip(2CF3)] (not fully specified) [Seq. ID. No. 20: H-(ACP)-QGTFTSD-Bip(OMe)-Bip(2CF3)] | 0 pmol/ml/µg prt |
| H[Aib]QGTFTSD[Bip(OMe)][Bip(2Me)] [Seq. ID. No. 13: H-Aib-QGTFTSD-Bip(OMe)-Bip(2Me)] | 4 pmol/ml/µg prt |
| HAQGTFTSD[Bip(OMe)][Bip(2CF3)] [Seq. ID. No. 12: HAQGTFTSD-Bip(OMe)-Bip(2CF3)] | 0 pmol/ml/µg prt |
| HXQGTXTSDXX (ACP at 2; α-Me-2F-Phe at 6; Bip(OMe) at 10; Bip(2Me) at 11) [Seq. ID. No. 33: H-(ACP)-QGT-(α-Me-2F-Phe)-TSD-Bip(OMe)-Bip(2Me)] | 0 pmol/ml/µg prt |
